Values from PubChem BioAssay AID720706

Listing of entries alongside the reported GFP signal change (wild-type ribosome).
Experiment: GFP drop in mixed WT/humanized-ribosome E. coli culture – GFP/RFP fluorescence, OD600, single point, bacterial rRNA inhibitor project, primary screen (AID 720706)
Conditions: E. coli WT GFP vs humanized-ribosome RFP mutants, 24 h; stronger effect = lower value, DMSO median 0, no signal -100
Among all 350,000 compounds or so, about 5,500 (1.6%) were called active. The list comes from a sample in which actives are over-represented; it also holds close analogues and randomly drawn compounds.
Express your answer in %, writing the number without its unit.

// solved cases for GFP signal change (wild-type ribosome) follow
Please report the measured GFP signal change (wild-type ribosome) for Cc1cccc(CS(=O)(=O)c2ncc(Cl)c(C(=O)Nc3ccc(F)cc3)n2)c1
6.16

Fill in reported GFP signal change (wild-type ribosome) for this entry: Oc1ccc(/C=N/N(Cc2ccccc2)c2ccccc2)cc1
-13.9

// fetch GFP signal change (wild-type ribosome) given entry CC(=O)Nc1ccc2c(c1)CC(=O)N(C)C[C@H](C)[C@H](CN(C)S(C)(=O)=O)O2
0.68

Please supply the value of reported GFP signal change (wild-type ribosome) for the item COc1cccc(Nc2nc(N)c([N+](=O)[O-])c(NCc3ccco3)n2)c1
-45.5

Give GFP signal change (wild-type ribosome) for the following molecule: CCCNC(=O)N(C)C[C@@H]1Oc2ncc(-c3cccc(C#N)c3)cc2C(=O)N([C@@H](C)CO)C[C@@H]1C
5.65

More entries:
Recall and state the measured GFP signal change (wild-type ribosome) for O=C(N[C@@H]1C=C[C@H](CC(=O)N2CCOCC2)O[C@H]1CO)c1ccccn1 .
4.32

* * *

Assay: GFP drop in mixed WT/humanized-ribosome E. coli culture – GFP/RFP fluorescence, OD600, single point, bacterial rRNA inhibitor project, primary screen (AID 720706)
Settings: E. coli WT GFP vs humanized-ribosome RFP mutants, 24 h; stronger effect = lower value, DMSO median 0, no signal -100
About 5,500 (1.6%) of roughly 350,000 compounds were called active. What follows is part of a selection rich in actives, with near analogues and random picks from the rest.
Measured GFP signal change (wild-type ribosome) by item
Give the quantity in %, number only.

Reference set (2 entries):
For COc1ccc(NC(=O)Nc2cccc3c2O[C@@H](CN(C)S(=O)(=O)c2cn(C)cn2)[C@H](C)CN([C@@H](C)CO)C3=O)cc1 , write its GFP signal change (wild-type ribosome).
-1.33

Give reported GFP signal change (wild-type ribosome) value for COc1ccc(-n2cc(CNC3CCOCC3)c(-c3cccc(F)c3)n2)cc1
-30.4

Proceeding to the next compound to report its GFP signal change (wild-type ribosome).
For the compound CCC(O)C1CCN(Cc2cn(-c3ccc(OC)cc3)nc2-c2cccc(F)c2)CC1 (stereo unspecified) , report GFP signal change (wild-type ribosome).
-12.5

* * *

Experiment: GFP drop in mixed WT/humanized-ribosome E. coli culture – GFP/RFP fluorescence, OD600, single point, bacterial rRNA inhibitor project, primary screen (AID 720706)
Details: E. coli WT GFP vs humanized-ribosome RFP mutants, 24 h; measured here: RFP humanized mutant strains, DMSO median 0, no signal -100, concentration not given here
Screen size: about 350,000 compounds; about 5,500 (1.6%) were called active. The sample as a whole holds a higher share of actives than the screen did.
// reported RFP signal change per item
Give your result as the value with the unit written after it.

The cases that follow already have their RFP signal change on record.
Determine from records and report RFP signal change for Cc1ccc(S(=O)(=O)CCC(=O)OCc2ccccc2)cc1
2.56%

Please indicate RFP signal change recorded for CNC[C@H]1Oc2ccccc2CC(=O)N(C)C[C@H]1C
-1.05%

Please report RFP signal change for the following molecule: O=C(Cc1ccc(Cl)cc1)NC(=S)Nc1ccccc1O
5.02%

Could you please provide reported RFP signal change for COc1ccc(OC)c(-c2csc(NC(=O)COC(=O)C3CC3)n2)c1 ? Thanks!
5.3%

Output RFP signal change of O=C(C[C@H]1C[C@H]2c3cc(NC(=O)C4CCOCC4)ccc3O[C@H]2[C@@H](CO)O1)NCCN1CCCCC1
1.6%

// moving on: another record for RFP signal change
Report RFP signal change, nothing else, for this molecule: CCN(CC)CCn1c2c(c(SCC(=O)Nc3nc4ccccc4s3)nc1=O)CCCC2
4.44%
